These measurements were taken from patent US20100047245A1.

Molecular target: recombinant purified human IL-12 p70 (human) (UniProt P29459)
Sequence (chain, as listed by the source, form in doubt, chain 1 of 2): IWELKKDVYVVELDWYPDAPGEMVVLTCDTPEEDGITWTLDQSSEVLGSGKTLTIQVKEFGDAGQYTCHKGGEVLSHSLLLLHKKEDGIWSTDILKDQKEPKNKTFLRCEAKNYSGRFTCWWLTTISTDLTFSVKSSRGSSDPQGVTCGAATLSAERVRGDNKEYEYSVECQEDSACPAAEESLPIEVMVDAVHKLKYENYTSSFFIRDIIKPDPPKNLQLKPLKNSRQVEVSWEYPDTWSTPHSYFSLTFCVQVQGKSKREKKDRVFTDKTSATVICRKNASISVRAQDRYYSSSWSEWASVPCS
Sequence (P29459 23-219, form in doubt, chain 2 of 2): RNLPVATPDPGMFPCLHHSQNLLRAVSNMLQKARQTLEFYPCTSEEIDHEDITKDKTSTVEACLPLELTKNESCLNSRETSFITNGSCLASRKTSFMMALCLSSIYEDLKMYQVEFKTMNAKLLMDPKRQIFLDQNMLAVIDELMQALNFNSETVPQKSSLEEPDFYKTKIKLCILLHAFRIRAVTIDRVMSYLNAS
Assay: SPR (Biacore 3000), mAb captured via goat anti-mouse IgG Fc, human IL-12 p70 in solution
propertyMeasured: pKd
Friendly reminder that pKd comes from taking -log10 of the concentration in mol/L.

Here is how some binders turned out for pKd.
binder: 5E8 (antibody, V domains shown) VH: QIQLVQSGPELKKPGETVKISCKASGYSFTDYSMHWVKQAPGKGLKWMDWINTETGEPTYADDFKGRFAFSLETSASTAYLQINNLKNEDTATYFCSRRRYRAFDYWGQGTTLTVSS VL: SIVMTQSPKFLLVSAGDRVTITCKASQSVSNDVAWYQQKLGQSPKLLIYYASNRYTGVPDRFTGSGYGTDFTFTINTVQAEDLAVYFCQQDYTSPYTFGGGTKLEIQR
pKd: 8.40
--
binder: 1H6 (antibody, V domains shown) VH: EVKLVESGGGLVQPGGSRKLSCAASGFTFSDYGMVWVRQAPGKGLEWVAYISSGSSTIHYADTMKGRFTISRDNPKNTLFLQMSSLRSEDTAMYYCARRHYYAMDYWGQGTSVTVSS VL: SFVMTQTPKFLLVSAGDRVTITCKASQSVSNDVAWYQQKPGQSPKLLIYYASNRYTGVPDRFTGTGYGTDFTFTISTVQAEDLAVYFCQQDYTSPFTFGSGTKLEIKR
pKd: 9.60

// returns reported pKd for input 8E1 (antibody, V domains shown) VH: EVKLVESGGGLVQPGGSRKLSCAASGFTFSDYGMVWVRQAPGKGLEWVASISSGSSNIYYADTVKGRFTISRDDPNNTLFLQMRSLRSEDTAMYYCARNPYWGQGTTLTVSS VL: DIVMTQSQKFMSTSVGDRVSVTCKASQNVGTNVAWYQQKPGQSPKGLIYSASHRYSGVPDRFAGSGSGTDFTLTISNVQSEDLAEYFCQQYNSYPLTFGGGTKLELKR 10.13
